Reference source for all entries: paper PMC10397247

Biological target: T1, P7SHb
T1 chain: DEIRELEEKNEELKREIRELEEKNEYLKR
Experiment: two-hybrid library CCNG1;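 also: natural log of median RNA to DNA barcode read ratio; higher means stronger binding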
Assay endpoint: interaction score

The cases that follow already have their interaction score on record.
[[record]]
binder = "DKNEELKREIERLEEENRELERKIEYLKR [P6SHb]"
experimental_result = 0.946

[[record]]
binder = "DEIRELEEKNEELKREIRELEEKNEYLKR [P7SHb]"
experimental_result = -0.618

[[record]]
binder = "DENEKLEREIRELEREIEKLEKKNRYLKE [P11SHb]"
experimental_result = 0.246

[[record]]
binder = "DKIEELKRKNRELKEKNKELKEKIYRLKE [P2SHb]"
experimental_result = 0.49

[[record]]
binder = "DEIKELEEEIRELEEKNEELKRKNEWLKR [P3SHb]"
experimental_result = 0.504

[[record]]
binder = "DKNRELKEKIERLKEKIRELKEENRYLEE [P12SHb]"
experimental_result = -0.593

[[record]]
binder = "DENRELEEKIRELKEKNEELKREIKYLEE [P5SHb]"
experimental_result = -0.193

[[record]]
binder = "DEIERLERENEKLERENERLEREIRWLEE [P1SHb]"
experimental_result = -0.298

[[record]]
binder = "DEIAQLEQEIAELEQKNAELEWKNAQLKQ [4H56-bA]"
experimental_result = 0.584


I = DKNEELKRENEELERKIERLKEKIRYLKE [P10SHb]
II = DKIEELKRKIEKLKRENERLERENEWLER [P4SHb]
Q: Which of these two has the smaller recorded interaction score: I or II ? Give the label of your selection.
Ans: II
